Target Or Test System: T1, human glycine transporter type 1 (Gly-T1) (Homo sapiens, UniProt P48067)
T1 construct: JAR) cells endogenously expressing human glycine transporter type 1 (Gly-T1); endogenous in cells
Test Description: Glycine Transporter 1 (GlyT1) Uptake Assay, in vitro
Reported Conditions: inhibition of [14C] glycine uptake (5 μM) in JAR cells endogenously expressing GlyT1; approximate values
Reported Endpoint: IC50

// query # input compound: O=C(O)CN1CCC(C(c2ccccc2)c2ccccc2)CC1 [Cpd I-8] ; wanted: its IC50
// result 536 nM

// query # input compound: O=C(O)CN1CCC(N(c2ccccc2)c2ccc(C(F)(F)F)cc2)CC1 [Cpd I-22] ; wanted: its IC50
// result 129 nM

// query # input compound: C[C@@H]1CN(C2(c3ccc(Cl)cc3)CCCCC2)CCN1CC(=O)O [Cpd I-26] ; wanted: its IC50
// result 101 nM

// query # input compound: O=C(O)CN1CCN(c2c3ccccc3cc3ccccc23)CC1 [Cpd I-11] ; wanted: its IC50
// result > 10000 nM

// query # input compound: O=C(O)CN1CCCC(N(c2ccccc2)c2ccc(C(F)(F)F)cc2)C1 (stereo not shown) [Cpd II-3] ; wanted: its IC50
// result 296 nM

// query # input compound: O=C(O)CN1CCC(C2c3ccccc3-c3ccccc32)CC1 [Cpd I-28] ; wanted: its IC50
// result > 10000 nM

// query # input compound: C[C@@H]1CN(c2c3ccccc3cc3ccccc23)CCN1CC(=O)O [Cpd I-12] ; wanted: its IC50
// result 687 nM

// query # input compound: O=C(O)CN1CCCC(C(c2ccccc2)c2ccc(C(F)(F)F)cc2)C1 (stereo not shown) [Cpd II-1] ; wanted: its IC50
// result 562 nM

// query # input compound: O=C(O)CN1CCC(N(c2ccccc2)c2cccc(-c3cccnc3)c2)C1 (stereo not shown) [Cpd II-10] ; wanted: its IC50
// result 14 nM

// query # input compound: O=C(O)CN1CCN(c2cccc3ccccc23)CC1 [Cpd I-9] ; wanted: its IC50
// result > 10000 nM

====

Target Or Test System: T1, human glycine transporter type 1 (Gly-T1) (Homo sapiens, UniProt P48067)
T1 construct: JAR) cells endogenously expressing human glycine transporter type 1 (Gly-T1); endogenous in cells
T1 sequence (P48067 1-706): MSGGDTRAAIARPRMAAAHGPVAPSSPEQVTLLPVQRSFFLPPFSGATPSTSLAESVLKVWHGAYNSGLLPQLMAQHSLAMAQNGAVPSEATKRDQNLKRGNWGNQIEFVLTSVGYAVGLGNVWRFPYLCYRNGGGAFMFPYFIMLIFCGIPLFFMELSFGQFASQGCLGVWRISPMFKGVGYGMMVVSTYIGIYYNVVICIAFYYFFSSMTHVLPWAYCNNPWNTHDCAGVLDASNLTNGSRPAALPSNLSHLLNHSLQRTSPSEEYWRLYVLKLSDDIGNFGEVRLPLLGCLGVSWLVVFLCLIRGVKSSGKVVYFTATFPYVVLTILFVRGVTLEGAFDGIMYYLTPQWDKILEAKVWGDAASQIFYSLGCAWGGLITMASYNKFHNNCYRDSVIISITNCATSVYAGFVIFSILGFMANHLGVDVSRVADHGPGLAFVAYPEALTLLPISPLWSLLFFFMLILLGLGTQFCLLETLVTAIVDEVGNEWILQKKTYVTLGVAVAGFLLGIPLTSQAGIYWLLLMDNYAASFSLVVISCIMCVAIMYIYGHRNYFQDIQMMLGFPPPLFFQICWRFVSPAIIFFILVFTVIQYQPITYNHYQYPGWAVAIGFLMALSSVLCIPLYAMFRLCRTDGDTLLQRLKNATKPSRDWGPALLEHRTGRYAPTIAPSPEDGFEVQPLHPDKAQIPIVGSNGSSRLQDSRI
Test Description: Glycine Transporter 1 (GlyT1) Uptake Assay, in vitro
Reported Conditions: inhibition of [14C] glycine uptake (5 μM) in JAR cells endogenously expressing GlyT1; approximate values
Counter-ions that a name gives are not always drawn.
Reported Endpoint: IC50 (nM)
// note: answer is a bare numeric in nM

// query # input compound: C[C@@H]1CN(C2CCCCc3ccccc32)CCN1CC(=O)O (stereo partly shown) ; wanted: its IC50
// result 258

// query # input compound: O=C(O)CN1CCC(N(c2ccccc2)c2cccc(C(F)(F)F)c2)CC1 ; wanted: its IC50
// result 393

// query # input compound: C[C@@H]1CN(C2c3ccccc3CCc3ccccc32)CCN1CC(=O)O ; wanted: its IC50
// result 147

// query # input compound: C[C@@H]1CN(C2CCCCC2c2ccccc2)CCN1CC(=O)O (stereo partly shown) [Cpd I-6, dihydrochloride] ; wanted: its IC50
// result 1130

// query # input compound: C[C@@H]1CN(C2(c3ccccc3)CCCCC2)CCN1CC(=O)O ; wanted: its IC50
// result 1530

// query # input compound: O=C(O)CN1CCC(C2c3ccccc3Oc3ccccc32)CC1 ; wanted: its IC50
// result 5320

// query # input compound: C[C@@H]1CN(c2cccc3ccccc23)CCN1CC(=O)O ; wanted: its IC50
// result 953

// query # input compound: C[C@@H]1CN(C2CCc3ccc(Br)cc32)CCN1CC(=O)O (stereo partly shown) ; wanted: its IC50
// result 1010

// query # input compound: CC1CC(C(c2ccccc2)c2ccccc2)CCN1CC(=O)O (stereo not shown) ; wanted: its IC50
// result 52

====

Target Or Test System: T1, human glycine transporter type 1 (Gly-T1) (Homo sapiens, UniProt P48067)
T1 construct: JAR) cells endogenously expressing human glycine transporter type 1 (Gly-T1); endogenous in cells
Test Description: Glycine Transporter 1 (GlyT1) Uptake Assay, in vitro
Reported Conditions: inhibition of [14C] glycine uptake (5 μM) in JAR cells endogenously expressing GlyT1; approximate values
Could you please report measured IC50 for the items listed next?
// note: answer is a bare numeric in nM

// query # input compound: O=C(O)CN1CCC(C(c2ccccc2)c2ccccc2C(F)(F)F)CC1 (stereo not drawn) [Cpd I-16] ; wanted: its IC50
// result 3520

// query # input compound: O=C(O)CN1CCC(N(c2ccccc2)c2ccc(C(F)(F)F)cc2)C1 (stereo not drawn) [Cpd II-5] ; wanted: its IC50
// result 18
